test: NCI Yeast Anticancer Drug Screen. Data for the sgs1 mgt1 strain (AID 161);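 further: 0% = growth of cultures given vehicle only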; conditions: S. cerevisiae sgs1 mgt1 strain, at 50.0 µM, hits give high values
Compounds without any hit were thinned out: in the full panel of roughly 79,000, 15% have a hit.
Item-by-item account of growth inhibition
Reply with just the number (in %).

Field: example entries. Status: answers known.
[ask] Dear colleague, please send me the reported growth inhibition for COc1ccc(C2S/C(=C\c3ccccc3)C(=O)N2NC(=O)Cc2ccccc2)cc1 (centres undefined) when you can.
[reply] -7.5

[ask] Dear colleague, please send me the reported growth inhibition for `c1ccc(C2=NC(c3ccccc3)N=C(c3ccccc3)N2)cc1` when you can.
[reply] 6.1

[ask] Dear colleague, please send me the reported growth inhibition for `CC(=O)OCC(=O)[C@@]1(O)CC[C@H]2[C@@H]3CCC4=CC(=O)CC[C@]4(C)[C@H]3C(=O)C[C@@]21C` when you can.
[reply] -6.85

Continuing:
[ask] Dear colleague, please send me the reported growth inhibition for `CCOC(=O)c1nc2ccc(OC)cc2c2c1Cc1ccccc1-2` when you can.
[reply] -22.1

[ask] Dear colleague, please send me the reported growth inhibition for `ClC(c1ccccc1)(c1ccccc1)C(Cl)(c1ccccc1)c1ccccc1` when you can.
[reply] 24.1

[ask] Dear colleague, please send me the reported growth inhibition for `O=C1c2ccccc2-c2oc(=O)c3ccccc3c21` when you can.
[reply] -6.05

[ask] Dear colleague, please send me the reported growth inhibition for `COc1cc(C=C(C#N)C#N)ccc1OC(=O)c1cc(OC)c(OC)c(OC)c1` when you can.
[reply] 15.8

[ask] Dear colleague, please send me the reported growth inhibition for `NS(=O)(=O)c1ncc(C(=O)N2CCN(Cc3ccccc3)CC2)[nH]1` when you can.
[reply] 7.2
